Form field: ADCC (donor 1152#) Minimum cell killing % (one value per entry).
# tested on: T1, human Trop2 on cells (human, UniProt P09758 27-323)
# T1 sequence (looked up): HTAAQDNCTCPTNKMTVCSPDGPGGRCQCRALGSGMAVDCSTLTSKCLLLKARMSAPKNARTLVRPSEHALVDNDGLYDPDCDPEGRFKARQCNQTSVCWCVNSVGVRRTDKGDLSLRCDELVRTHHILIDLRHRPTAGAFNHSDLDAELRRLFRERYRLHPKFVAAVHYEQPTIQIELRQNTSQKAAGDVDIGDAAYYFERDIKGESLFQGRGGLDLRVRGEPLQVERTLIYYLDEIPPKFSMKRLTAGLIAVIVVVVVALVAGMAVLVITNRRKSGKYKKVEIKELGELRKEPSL
# protocol description: cell-based or functional assay
measured property: ADCC (donor 1152#) Minimum cell killing %

[
  {
    "binder": "PR001142 (antibody, human IgG1, kappa, V domains shown, fully human IgG1/kappa; also called antibody No. (9)) VH: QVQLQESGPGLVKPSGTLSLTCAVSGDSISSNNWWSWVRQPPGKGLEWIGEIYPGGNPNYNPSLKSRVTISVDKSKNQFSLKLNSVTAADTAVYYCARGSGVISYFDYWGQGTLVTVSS VL: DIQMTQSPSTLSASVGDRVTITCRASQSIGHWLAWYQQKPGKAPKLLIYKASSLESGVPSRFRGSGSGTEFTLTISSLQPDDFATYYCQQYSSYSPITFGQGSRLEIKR",
    "assay result": "4.47%"
  },
  {
    "binder": "PR001166 (antibody, human IgG1, kappa, V domains shown, fully human IgG1/kappa; also called antibody No. (27)) VH: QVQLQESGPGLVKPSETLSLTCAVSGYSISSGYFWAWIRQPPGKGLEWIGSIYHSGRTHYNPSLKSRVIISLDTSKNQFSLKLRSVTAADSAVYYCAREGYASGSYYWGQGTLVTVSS VL: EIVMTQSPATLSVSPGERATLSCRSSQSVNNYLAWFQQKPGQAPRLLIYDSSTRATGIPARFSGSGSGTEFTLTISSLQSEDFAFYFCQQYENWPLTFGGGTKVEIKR",
    "assay result": "3.25%"
  },
  {
    "binder": "PR001165 (antibody, human IgG1, kappa, V domains shown, fully human IgG1/kappa; also called antibody No. (26)) VH: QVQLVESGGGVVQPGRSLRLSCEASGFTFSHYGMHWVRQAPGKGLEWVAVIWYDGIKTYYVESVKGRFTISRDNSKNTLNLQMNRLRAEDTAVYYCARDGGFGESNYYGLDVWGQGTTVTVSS VL: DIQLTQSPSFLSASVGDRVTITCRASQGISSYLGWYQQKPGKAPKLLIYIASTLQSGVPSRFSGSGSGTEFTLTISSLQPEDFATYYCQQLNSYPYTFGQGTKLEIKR",
    "assay result": "5.79%"
  },
  {
    "binder": "comparative example 2 antibody Tab (hRS7) (antibody, human IgG1, kappa, V domains shown, prepared on the basis of sacituzumab govitecan (ChemPartner, #T07-001); naked antibody) VH: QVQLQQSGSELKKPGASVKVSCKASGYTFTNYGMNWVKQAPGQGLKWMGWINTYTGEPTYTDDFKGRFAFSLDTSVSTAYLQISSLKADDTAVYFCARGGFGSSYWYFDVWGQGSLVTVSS VL: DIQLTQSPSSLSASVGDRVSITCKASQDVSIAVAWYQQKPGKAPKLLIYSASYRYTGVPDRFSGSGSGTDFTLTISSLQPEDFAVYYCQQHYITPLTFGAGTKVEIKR",
    "assay result": "4.32%"
  }
]
